system: MCF-7; assay: Anti-proliferative activity, SRB colorimetric assay; assay type: cell-based; conditions: authors' grading of Table 1 values, key not given
quantity measured: anti-proliferative activity against MCF-7, in words

molecule: Oc1ccc(C2=NNC(c3cccs3)C2)cc1 (centres unmarked)
assay system: MCF-7
result: very strong

molecule: CCOC(=O)CN1N=C(c2ccc(O)cc2)CC1c1cccs1 (centres unmarked) [15a]
assay system: MCF-7
result: very strong

molecule: O=C(SC(=S)N1N=C(c2ccc(O)cc2)CC1c1cccs1)c1ccccc1 (centres unmarked) [18a]
assay system: MCF-7
result: very strong

* * *

Please respond with reported melting point for every item in the list.

melting point lookup needed for Oc1ccc(-c2cc(-c3cccs3)n(-c3nc4nc5ccccc5nc4s3)n2)cc1 [12a] , thanks.
250 to 252 °C

Another molecule to check: NC(=S)n1nc(-c2ccc(O)cc2)cc1-c1cccs1 [10a]
195 to 197 °C

// repeat for Oc1ccc(-c2cc(-c3cccs3)nc(/N=C/c3ccccc3O)n2)cc1 [13a] and report
133 to 135 °C

* * *

quantity measured: melting point

Requested field: melting point. Item: Oc1ccc(C2=NN(C(=S)Nc3ccccc3)C(c3cccs3)C2)cc1 (stereo not shown) [14a]
245 to 247 °C

// same read-out, input: O=C(O)CSC(=S)N1N=C(c2ccc(O)cc2)CC1c1cccs1 (stereo not shown) [19a]
223 to 225 °C

Would you mind doing NS(=O)(=O)c1ccc(NC(=O)CN2N=C(c3ccc(O)cc3)CC2c2cccs2)cc1 (stereo not shown) [16a] as well?
158 to 160 °C

Continue with Oc1ccc(C2=NNC(c3cccs3)C2)cc1 (stereo not shown)
100 to 102 °C

* * *

system: A. flavus; test: Antifungal activity, inhibition zone approach; format: cell-based, Aspergillus flavus; settings: ketoconazole = 100
quantity measured: A. flavus % Activity index
Write the quantity with the unit trailing the number.

Recorded A. flavus % Activity index of O=C(O)CSC(=S)N1N=C(c2ccc(O)cc2)CC1c1cccs1 (centres unmarked) [19a] , please.
50.0%

And for N#Cc1c(-c2cccs2)cc(-c2ccc(O)cc2)nc1N [2a] ?
46.1%

Would you mind doing N#Cc1c(-c2cccs2)cc(-c2ccc(O)cc2)nc1O [5a] as well?
30.8%

Item: Oc1ccc(-c2cc(-c3cccs3)nc(/N=C/c3ccccc3O)n2)cc1 [13a]
61.5%

Try this compound next: NC(=S)n1nc(-c2ccc(O)cc2)cc1-c1cccs1 [10a]
42.3%

Please do the same for CCOC(=O)CN1N=C(c2ccc(O)cc2)CC1c1cccs1 (centres unmarked) [15a] as well.
57.7%

Try this compound next: CCOC(=O)CSC(=S)N1N=C(c2ccc(O)cc2)CC1c1cccs1 (centres unmarked) [17a]
30.8%

Similarly, O=C(CCl)SC(=S)N1N=C(c2ccc(O)cc2)CC1c1cccs1 (centres unmarked) [20a] ?
26.9%

And the next one, N#Cc1c(N)c2c(-c3cccs3)cc(-c3ccc(O)cc3)nc2[nH]c1=O [6a] ?
30.8%

Follow-up entry: O=C(CNC(=S)n1nc(-c2ccc(Cl)c(Cl)c2)cc1-c1cccs1)c1ccccc1 [12b]
38.5%

Same question for Clc1ccc(C2=NN(c3ccccc3)C(c3cccs3)C2)cc1Cl (centres unmarked) [9b] please.
11.5%
